Target: Fatty acid-binding protein, liver (Rattus norvegicus)
Sequence (P02692 whole entry): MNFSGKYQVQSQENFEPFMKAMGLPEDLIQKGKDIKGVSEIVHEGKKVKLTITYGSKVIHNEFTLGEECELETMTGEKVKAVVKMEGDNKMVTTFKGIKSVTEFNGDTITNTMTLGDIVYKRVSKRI
Experiment: Displacement of 1-anilinonaphthalene-8-sulphonic acid from rat recombinant L-FABP low binding affinity site expressed in Escherichia coli BL21 by competitive fluorescence displacement assay
Details: read-out: Ki
measured attribute: Ki (µM)
Your answer is read as µM, so omit the unit and give the number.

Here are 5 compounds together with their reported answers.
| compound | experimental system | value unit | Ki |
| --- | --- | --- | --- |
| CC(C)Cc1ccc(C(C)C(=O)O)cc1 (centres undefined) [IBUPROFEN] | Fatty acid-binding protein, liver (Rattus norvegicus) | µM | 448 |
| CC(C)(Oc1ccc(C(=O)c2ccc(Cl)cc2)cc1)C(=O)O [FENOFIBRIC ACID] | Fatty acid-binding protein, liver (Rattus norvegicus) | µM | 27.5 |
| CC(C(=O)O)c1ccc(-c2ccccc2)c(F)c1 (centres undefined) [FLURBIPROFEN] | Fatty acid-binding protein, liver (Rattus norvegicus) | µM | 222 |
| O=C(c1ccccc1)c1ccc2n1CCC2C(=O)O (centres undefined) [KETOROLAC] | Fatty acid-binding protein, liver (Rattus norvegicus) | µM | 119 |
| O=C(O)Cc1ccccc1Nc1c(Cl)cccc1Cl [DICLOFENAC] | Fatty acid-binding protein, liver (Rattus norvegicus) | µM | 35.4 |

Reported Ki, compound CC(C)OC(=O)C(C)(C)Oc1ccc(C(=O)c2ccc(Cl)cc2)cc1 [FENOFIBRATE] : ____
0.405

Reported Ki, compound C[C@@H]1C[C@H]2[C@@H]3CCC4=CC(=O)C=C[C@]4(C)[C@@]3(F)[C@@H](O)C[C@]2(C)[C@@]1(O)C(=O)CO [DEXAMETHASONE] : ____
41.3

Reported Ki, compound O=C1Nc2ccc(Cl)cc2C(c2ccccc2Cl)=NC1O (centres undefined) [LORAZEPAM] : ____
140

Reported Ki, compound C[C@]12C=CC(=O)C=C1CC[C@@H]1[C@@H]2[C@@H](O)C[C@@]2(C)[C@H]1CC[C@]2(O)C(=O)CO [PREDNISOLONE] : ____
101

====

Target: UniProt P02692
Assay: Displacement of 1-anilinonaphthalene-8-sulphonic acid from rat recombinant L-FABP low binding affinity site expressed in Escherichia coli BL21 by competitive fluorescence displacement assay
measured attribute: Ki
Include the unit right after the number.

Reported Ki, molecule CC(=O)Oc1ccccc1C(=O)O : ____
3.78 mM

====

Target: Fatty acid-binding protein, liver (Rattus norvegicus, UniProt P02692)
Assay: Displacement of 1-anilinonaphthalene-8-sulphonic acid from rat recombinant L-FABP high binding affinity site expressed in Escherichia coli BL21 by competitive fluorescence displacement assay
Conditions: read-out: Ki
measured attribute: pKi
Lab note: report pKi as minus log10 of the concentration in molar units, number only.

| compound | measured attribute | measured number |
| --- | --- | --- |
| CCOC(=O)C(C)(C)Oc1ccc(Cl)cc1 [CLOFIBRATE] | pKi | 5.16 |
| CC(C(=O)O)c1ccc(-c2ccccc2)c(F)c1 (stereo not given) | pKi | 5.93 |
| O=C(c1ccccc1)c1ccc2n1CCC2C(=O)O (stereo not given) | pKi | 4.94 |
| CC(C(=O)O)c1ccc(N2Cc3ccccc3C2=O)cc1 (stereo not given) | pKi | 5.90 |
| CC(=O)[C@H]1CC[C@H]2[C@@H]3CCC4=CC(=O)CC[C@]4(C)[C@H]3CC[C@]12C | pKi | 7.57 |

Please tell me: pKi of CC(C)OC(=O)C(C)(C)Oc1ccc(C(=O)c2ccc(Cl)cc2)cc1 [FENOFIBRATE] , system Fatty acid-binding protein, liver (Rattus norvegicus, UniProt P02692)?
7.62

Please tell me: pKi of O=C(O)Cc1ccccc1Nc1c(Cl)cccc1Cl , system Fatty acid-binding protein, liver (Rattus norvegicus, UniProt P02692)?
5.49

Please tell me: pKi of CC(C)(C)NCC(O)COc1cccc2c1CC(O)C(O)C2 (stereo not given) , system Fatty acid-binding protein, liver (Rattus norvegicus, UniProt P02692)?
2.64

Please tell me: pKi of C[C@@H]1C[C@H]2[C@@H]3CCC4=CC(=O)C=C[C@]4(C)[C@@]3(F)[C@@H](O)C[C@]2(C)[C@@]1(O)C(=O)CO , system Fatty acid-binding protein, liver (Rattus norvegicus, UniProt P02692)?
4.66

Please tell me: pKi of C[C@]12C=CC(=O)C=C1CC[C@@H]1[C@@H]2[C@@H](O)C[C@@]2(C)[C@H]1CC[C@]2(O)C(=O)CO , system Fatty acid-binding protein, liver (Rattus norvegicus, UniProt P02692)?
5.58

Please tell me: pKi of CC(C)(Oc1ccc(C(=O)c2ccc(Cl)cc2)cc1)C(=O)O , system Fatty acid-binding protein, liver (Rattus norvegicus, UniProt P02692)?
6.48

Please tell me: pKi of CC(C)Cc1ccc(C(C)C(=O)O)cc1 (stereo not given) , system Fatty acid-binding protein, liver (Rattus norvegicus, UniProt P02692)?
4.32

Please tell me: pKi of Cc1ccc(C)c(OCCCC(C)(C)C(=O)O)c1 , system Fatty acid-binding protein, liver (Rattus norvegicus, UniProt P02692)?
5.73

Please tell me: pKi of Cc1ccc(Cl)c(Nc2ccccc2C(=O)O)c1Cl , system Fatty acid-binding protein, liver (Rattus norvegicus, UniProt P02692)?
6.42

Please tell me: pKi of O=C1Nc2ccc(Cl)cc2C(c2ccccc2Cl)=NC1O (stereo not given) , system Fatty acid-binding protein, liver (Rattus norvegicus, UniProt P02692)?
4.89
